System: HIF
Test: luciferase cell assay based on the HIF response elements (HRE), HeLa 9XHRE-LUC
Set-up: species or system human
Conditions: Homo sapiens, HeLa
reported property: IC50 (nM)

                                   compound  recorded_measurement
0  Cc1ccc(C(=O)COC(=O)c2cccc(NC(=O)c3ccc([N+](=O)[O-])cc3[N+](=O)[O-])c2)cc1 [FM19G11]                    80

====

System: HIF
Assay: luciferase cell assay based on the HIF response elements (HRE), HeLa 9XHRE-LUC
Design: species or system human
Details: Homo sapiens; cell assay based on the HIF response elements (Example 1), HeLa 9XHRE-LUC; read-out: IC50 HRE
pIC50: −log10 of the molar value.
Listed next: entries and their corresponding pIC50.
reported property: pIC50

In [3]: df
Out[3]:
                                smiles_repr  assay_target  reported_property  recorded_measurement
0  Cc1ccc(C(=O)COC(=O)c2cccc(NC(=O)c3ccc(C(F)(F)F)cc3[N+](=O)[O-])c2)cc1           HIF              pIC50                  7.08
1  O=C(O)c1cccc(NC(=O)c2ccc([N+](=O)[O-])cc2C(F)(F)F)c1           HIF              pIC50                < 6.00
2  Cc1ccc(C(=O)COC(=O)c2cccc(NC(=O)c3ccccc3)c2)cc1           HIF              pIC50                < 6.00
3  O=C(COC(=O)c1cccc(NC(=O)c2ccc([N+](=O)[O-])cc2[N+](=O)[O-])c1)c1ccccc1           HIF              pIC50                < 6.00
